Exercise: state measured ED50 for each of the compounds provided.
Species: Rattus norvegicus
Assay: Inhibition of yeast-induced pyresis in Wistar rat
Assay type: functional
Please reply with the bare figure in mg/kg and do not write the unit itself.

In one line, give reported ED50 of the entry Cc1cc(=O)c(Oc2ccc(Br)cc2F)c(-c2ccc([S+](C)[O-])cc2)o1 (stereo not given) .
2.8

Report measured ED50; entry is Cc1cc(=O)c(Oc2ccc(Cl)cc2F)c(-c2ccc([S+](C)[O-])cc2)o1 (stereo not given)
2.3

# return recorded ED50 for input `CS(=O)(=O)c1ccc(C2=C(c3ccccc3)C(=O)OC2)cc1`
0.9

Read the entry `Cc1ccc(-c2ncc(Cl)cc2-c2ccc(S(C)(=O)=O)cc2)cn1` and write its reported ED50.
1

Identify measured ED50 corresponding to `Cc1cc(=O)c(Oc2ccc(F)cc2F)c(-c2ccc(S(C)(=O)=O)cc2)o1`
0.7

====

Assay: AUC in Wistar rat at 1 mg/kg, po
Format: ADME, organism-based
Parameters: dose 1 mg/kg, route oral
Settings: plasma
Measured metric: AUC (ng·h/mL)
Please reply with the bare figure in ng·h/mL and do not write the unit itself.

Output measured AUC for this item: `Cc1cc(=O)c(Oc2ccc(Br)cc2F)c(-c2ccc(S(C)(=O)=O)cc2)o1`
1270

Please report the measured AUC for Cc1cc(=O)c(Oc2ccc(F)cc2F)c(-c2ccc([S+](C)[O-])cc2)o1 (centres undefined)
1310

Determine its reported AUC: Cc1cc(=O)c(Oc2ccc(Br)cc2F)c(-c2ccc([S+](C)[O-])cc2)o1 (centres undefined)
43

Tell us which AUC value is on record for `Cc1cc(=O)c(Oc2ccc(F)cc2F)c(-c2ccc(S(C)(=O)=O)cc2)o1`
9220

====

Test: Metabolic stability in rat liver microsomes at 5 uM after 30 min […]
Type: ADME, Microsome
Settings: in the assay text read “37 degC” for “30 degC”, read-out: Stability
Each record gets a class by remaining at 0.5 h, 5 µM: class 0 = under 30%, class 1 = from 30% up to 70%, class 2 = 70% and over

Lab note: which band did Cc1cc(=O)c(Oc2ccc(Br)cc2F)c(-c2ccc([S+](C)[O-])cc2)o1 (centres undefined) land in?
class 2

Band for the recorded remaining at 0.5 h, 5 µM of `Cc1cc(=O)c(Oc2ccc(Br)cc2F)c(-c2ccc([S@@+](C)[O-])cc2)o1` ?
class 2

Lab note: sort `Cc1cc(=O)c(Oc2ccc(Cl)cc2F)c(-c2ccc([S@+](C)[O-])cc2)o1` into the matching remaining at 0.5 h, 5 µM band.
class 1

Given `Cc1cc(=O)c(Oc2ccc(F)cc2F)c(-c2ccc([S@+](C)[O-])cc2)o1` , name the class its remaining at 0.5 h, 5 µM places it in.
class 1

Input Cc1cc(=O)c(Oc2ccc(F)cc2F)c(-c2ccc([S+](C)[O-])cc2)o1 (centres undefined) ; output its category
class 1

Entry `Cc1cc(=O)c(Oc2ccc(F)cc2F)c(-c2ccc(S(C)(=O)=O)cc2)o1` belongs to which category?
class 0

Please classify: `Cc1cc(=O)c(Oc2ccc(Br)cc2F)c(-c2ccc(S(C)(=O)=O)cc2)o1`
class 1

Class? Entry: `Cc1cc(=O)c(Oc2ccc(Cl)cc2F)c(-c2ccc(S(C)(=O)=O)cc2)o1`
class 0

Classify this molecule: `Cc1cc(=O)c(Oc2ccc(F)cc2F)c(-c2ccc([S@@+](C)[O-])cc2)o1`
class 1
